B1: glmS ribozyme (parent)
chain: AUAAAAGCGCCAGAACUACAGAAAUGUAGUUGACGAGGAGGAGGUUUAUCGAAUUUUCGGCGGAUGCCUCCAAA

- Variants of: B1
- MEASUREMENT_DESCRIPTION: self-cleavage kobs at 2500 uM GlcN6P; higher = faster cleavage; RNA array
- APPLIED_CONDITIONS: with glucosamine-6-phosphate
Fewer inactive variants are shown than the library holds.
Provide the reported self-cleavage kobs at 2500 uM GlcN6P of each item.
Give bare numbers, in s⁻¹.

Solved cases (5 shown):
G40A A72C; 0.00214
A39C G43U C68U; 5.95e-05
G40A U45C A53C; 3.19e-05
C11U A14U C16G; 6.42e-05
C50U A64G; 5.38e-05

# per-item lookup of self-cleavage kobs at 2500 uM GlcN6P; items listed below
1. G13U U45A
2. C16U U55C C70U
3. A14U A33C
4. G44C U54C
5. C16G G51A G60A G63A C70A
6. C11A A12U G40U

A.
0.00117
0.000261
5.28e-05
0.000133
4.28e-05
4.18e-05
